assay: Human HepG2 cell viability assay in 384 well format; format: toxicity, cell-based; parameters: dose 125 nL, time 70.5 hour; concentration not given beside the values; details: HepG2 cells, read-out: Inhibition
TEST_READOUT: cytotoxicity at 70.5 h (%)
The reply should contain only the number, in %.

Ask: Quick one: cytotoxicity at 70.5 h of CCC(CC)c1nnc(NC(=O)N2CCC(C(N)=O)CC2)s1 ?
Result: -0.155

Ask: Quick one: cytotoxicity at 70.5 h of CC(=O)c1ccc(C(=O)NCC2Cc3ccccc3O2)s1 (stereo unspecified) ?
Result: 23.7

Ask: Quick one: cytotoxicity at 70.5 h of O=c1c2ccccc2nc2n1C(CSc1cccc(C(F)(F)F)c1)CN2 (stereo unspecified) ?
Result: -2.38

###

test: Human HepG2 cell viability assay in 384 well format; format: toxicity, cell-based; design: dose 125 nL, time 70.5 hour; concentration not given beside the values; conditions: HepG2 cells, read-out: Inhibition
In this section, each of the compounds is paired with its reported cytotoxicity at 70.5 h.

- COMPOUND: "CN(Cc1noc(C2CC2)n1)C1CCCN(c2cccnn2)C1 (centres undefined)"
  cytotoxicity at 70.5 h: "0.945%"
- COMPOUND: "CNCc1ccc(OCc2ccc3c(c2)OCCO3)cc1"
  cytotoxicity at 70.5 h: "-3.57%"

Ask: Quick one: cytotoxicity at 70.5 h of Cc1ncsc1C(=O)N1CCCC(CO)(CC2CC2)C1 (centres undefined) ?
Result: -7.6%

Ask: Quick one: cytotoxicity at 70.5 h of CCC1COCCN1C(=O)CNC(=O)c1ccc2c(c1)CCC2 (centres undefined) ?
Result: 37.1%

Ask: Quick one: cytotoxicity at 70.5 h of CNC(=O)NC(=O)CN1CCN(CC2CC2)c2ccccc21 ?
Result: 1.66%

Ask: Quick one: cytotoxicity at 70.5 h of CN1CCCC(N(C)C(=O)c2ccc(NC(=O)c3ccc[nH]3)cc2)C1 (centres undefined) ?
Result: -0.19%

Ask: Quick one: cytotoxicity at 70.5 h of CCc1nn(C)c(Cl)c1CN1CCN(c2nc(C(N)=O)cs2)CC1 ?
Result: -3.53%

Ask: Quick one: cytotoxicity at 70.5 h of Cc1[nH]ncc1C(=O)N1CCCC(n2cncn2)C1 (centres undefined) ?
Result: -1.06%

Ask: Quick one: cytotoxicity at 70.5 h of Cc1noc(C)c1CN1C(=O)[C@H]2CC[C@@H]1CN(Cc1cccc(O)c1)C2 ?
Result: 5.47%

Ask: Quick one: cytotoxicity at 70.5 h of Cc1cc(C(=O)N2CCCCC2C)ccc1NC(=O)N1CCOCC1 (centres undefined) ?
Result: -6.59%

###

test: Human HepG2 cell viability assay in 384 well format; type: toxicity, cell-based; design: dose 125 nL, time 70.5 hour; concentration not given beside the values; conditions: HepG2 cells, read-out: Inhibition
In this section, each of the molecules is paired with its reported cytotoxicity at 70.5 h.
The reply should contain only the number, in %.

Example cases with answers are listed next.
- MOLECULE: "CC(=O)N1CCC(C)(c2nc(C)no2)CC1"
  cytotoxicity at 70.5 h (%): -5
- MOLECULE: "CN1CCC(N(Cc2ccncc2)Cc2nc3c(s2)CCCC3)CC1"
  cytotoxicity at 70.5 h (%): -11.2

Ask: Quick one: cytotoxicity at 70.5 h of O=c1ccc2c([nH]1)CCC(NS(=O)(=O)C1CC1)C2 (configuration not stated) ?
Result: -4.74

Ask: Quick one: cytotoxicity at 70.5 h of O=C(CS(=O)(=O)Cc1cc(Cl)c2c(c1)OCO2)N1CCCCCC1 ?
Result: -2.51

Ask: Quick one: cytotoxicity at 70.5 h of Cc1ccc(Nc2nccc(C3CCN(C(=O)CO)C3)n2)nc1 (configuration not stated) ?
Result: -11.2

Ask: Quick one: cytotoxicity at 70.5 h of COc1ccc(CNCCc2cccc(C(N)=O)c2)cc1O ?
Result: -6.24

Ask: Quick one: cytotoxicity at 70.5 h of CC(C)NC(=O)N1CCC2(CCCO2)C1 (configuration not stated) ?
Result: 14.2

Ask: Quick one: cytotoxicity at 70.5 h of CS(=O)(=O)N1CCc2ccc(C(=O)N3CCn4ncnc4C3)cc21 ?
Result: -1.85

Ask: Quick one: cytotoxicity at 70.5 h of CS(=O)(=O)NC1(CCc2ccc(NC(=O)C3CC3)nc2)CCCCC1 ?
Result: 15

Ask: Quick one: cytotoxicity at 70.5 h of CSc1cccc(CN(C)C(=O)Nc2nc(C)n(C)n2)c1 ?
Result: -3.93

Ask: Quick one: cytotoxicity at 70.5 h of O=C1CCC2(CCCN(C(=O)c3cscn3)C2)CN1CCc1c[nH]cn1 (configuration not stated) ?
Result: -9.29

###

assay: Human HepG2 cell viability assay in 384 well format; format: toxicity, cell-based; set-up: dose 125 nL, time 70.5 hour; concentration not given beside the values; settings: HepG2 cells, read-out: Inhibition
In this section, each of the compounds is paired with its reported cytotoxicity at 70.5 h.
The reply should contain only the number, in %.

- COMPOUND: "O=C1NC2(Cc3ccccc31)CN(CC1CCOCC1)C2"
  TEST_READOUT: "cytotoxicity at 70.5 h"
  NUMERIC_VALUE: 25.2
- COMPOUND: "O=C(CC1CC1)N1CCC2(CC1)CC(Oc1ccccc1)CO2 (configuration not stated)"
  TEST_READOUT: "cytotoxicity at 70.5 h"
  NUMERIC_VALUE: -4.92
- COMPOUND: "COc1cccc([C@@H]2N[C@H](c3nccs3)Cc3ccsc32)c1OC"
  TEST_READOUT: "cytotoxicity at 70.5 h"
  NUMERIC_VALUE: -12.9
- COMPOUND: "Cc1ccc(CN2CCc3nnc(CN4CCCC4=O)n3CC2)s1"
  TEST_READOUT: "cytotoxicity at 70.5 h"
  NUMERIC_VALUE: -7.74
- COMPOUND: "c1c[nH]c2nc(C3CCNC3)nc-2c1 (configuration not stated)"
  TEST_READOUT: "cytotoxicity at 70.5 h"
  NUMERIC_VALUE: -17.5
- COMPOUND: "O=c1[nH]c2ncccc2n1C1CCNCC1"
  TEST_READOUT: "cytotoxicity at 70.5 h"
  NUMERIC_VALUE: -11
- COMPOUND: "COCCN1CCC2(CC1)CN(C(C)=O)c1ccc(C)cc12"
  TEST_READOUT: "cytotoxicity at 70.5 h"
  NUMERIC_VALUE: 4.91
- COMPOUND: "Cc1ccnc(OC[C@]23COC[C@H]2CN(C(=O)C2=CCCCC2)C3)n1"
  TEST_READOUT: "cytotoxicity at 70.5 h"
  NUMERIC_VALUE: -11.5

Ask: Quick one: cytotoxicity at 70.5 h of COc1cc2cc(C(=O)NCCC(=O)O)n(C)c2c(OC)c1OC ?
Result: -4.76

Ask: Quick one: cytotoxicity at 70.5 h of CC(C)c1nsc(N2CCOCC2)n1 ?
Result: -27.4

Ask: Quick one: cytotoxicity at 70.5 h of Cc1ccsc1[C@@H]1CCN(C(=O)Cc2ccc(O)cc2)C[C@H]1O ?
Result: -2.32

Ask: Quick one: cytotoxicity at 70.5 h of CCOCCC(=O)N(Cc1ccncc1)C(C)CC (configuration not stated) ?
Result: 20.8

###

assay: Human HepG2 cell viability assay in 384 well format; format: toxicity, cell-based; set-up: dose 125 nL, time 70.5 hour; concentration not given beside the values; conditions: HepG2 cells, read-out: Inhibition
TEST_READOUT: cytotoxicity at 70.5 h (%)
The reply should contain only the number, in %.

Example cases with answers are listed next.
- COMPOUND: "CC1CN(S(=O)(=O)c2ccc(F)cc2)c2cccnc2O1 (stereo unspecified)"
  NUMERIC_VALUE: 1.22
- COMPOUND: "NCc1csc(CCc2ccccc2)n1"
  NUMERIC_VALUE: -8.04

Ask: Quick one: cytotoxicity at 70.5 h of O=C(O)CCc1cc2n(n1)CCCN(C(=O)c1ccc(F)cc1F)C2 ?
Result: -0.277

Ask: Quick one: cytotoxicity at 70.5 h of CC1(C)[C@H]2CC=C(CN3CCCn4nc(CCC(=O)O)cc4C3)[C@@H]1C2 ?
Result: -14.3

Ask: Quick one: cytotoxicity at 70.5 h of Cn1cc2c(n1)C(COCC1CC1)CN(Cc1ccccn1)C2 (stereo unspecified) ?
Result: 15.6

Ask: Quick one: cytotoxicity at 70.5 h of COc1ccc2[nH]cc(C3CCN(CCC(N)=O)CC3)c2c1 ?
Result: -11.2

###

In this section, each of the compounds is paired with its reported cytotoxicity at 70.5 h.
assay: Human HepG2 cell viability assay in 384 well format; assay type: toxicity, cell-based; parameters: dose 125 nL, time 70.5 hour; concentration not given beside the values; conditions: HepG2 cells, read-out: Inhibition
The reply should contain only the number, in %.

- COMPOUND: "O[C@H]1CN(Cc2ccc3c(c2)OCCO3)CC[C@@]12CCCO2"
  UNIT_SYMBOL: "%"
  cytotoxicity at 70.5 h: -2.15
- COMPOUND: "CC(C)OCCC(=O)NCC(O)c1c(F)cccc1F (configuration not stated)"
  UNIT_SYMBOL: "%"
  cytotoxicity at 70.5 h: -6.84
- COMPOUND: "CCOc1ncccc1CNC(=O)c1c(C)oc(C)c1C"
  UNIT_SYMBOL: "%"
  cytotoxicity at 70.5 h: -9.43
- COMPOUND: "CC(C)N1CC(c2ncc(-c3ccc4c(c3)OCCO4)[nH]2)CC1=O (configuration not stated)"
  UNIT_SYMBOL: "%"
  cytotoxicity at 70.5 h: -5.64
- COMPOUND: "CC(=O)Nc1ccc(/C=C/c2ncc(C(=O)O)s2)cc1"
  UNIT_SYMBOL: "%"
  cytotoxicity at 70.5 h: -1.46

Ask: Quick one: cytotoxicity at 70.5 h of CN(C)c1ncc2c(n1)CCCC2NC(=O)c1ccsc1 (configuration not stated) ?
Result: -3.74

Ask: Quick one: cytotoxicity at 70.5 h of CN1CC2(CCN(C(=O)c3cn4cccnc4n3)CC2)CC1=O ?
Result: 39.7

Ask: Quick one: cytotoxicity at 70.5 h of CC(C)c1nc2c(n1C)CCN(Cc1nc(-c3cccnc3)no1)C2 ?
Result: -11.9

Ask: Quick one: cytotoxicity at 70.5 h of Cn1cc2ncn(CCNc3cccnc3)c(=O)c2n1 ?
Result: -3.81

Ask: Quick one: cytotoxicity at 70.5 h of OC[C@@H]1CCCN1Cc1cn(C2CCN(C3CCCC3)CC2)nn1 ?
Result: -4.14

Ask: Quick one: cytotoxicity at 70.5 h of CCOCC(O)CN1CCN(C(=O)Cc2ccc(C)nc2)CC1 (configuration not stated) ?
Result: -0.471

Ask: Quick one: cytotoxicity at 70.5 h of O=C1N(Cc2cccnc2)CCC12CCCN(c1ncc(F)cn1)C2 (configuration not stated) ?
Result: -3.96

Ask: Quick one: cytotoxicity at 70.5 h of Cc1cc(C(=O)N2CC[C@H]3[C@H](C[C@@H](CN4CCCC4)N3C)C2)c(C)o1 ?
Result: 1.81

Ask: Quick one: cytotoxicity at 70.5 h of CN(C)[C@@H]1CCN(C(=O)c2ccccn2)[C@H]1Cc1cnn(C)c1 ?
Result: -5.7

Ask: Quick one: cytotoxicity at 70.5 h of CCc1cc(CN(C)C(=O)c2nnc(CN(C)C)o2)on1 ?
Result: -4.97
